Reported apparent Kd (screen) values for a set of binders
- systemName: T1, TNFR1 (Homo sapiens, UniProt P19438)
- T1 chain: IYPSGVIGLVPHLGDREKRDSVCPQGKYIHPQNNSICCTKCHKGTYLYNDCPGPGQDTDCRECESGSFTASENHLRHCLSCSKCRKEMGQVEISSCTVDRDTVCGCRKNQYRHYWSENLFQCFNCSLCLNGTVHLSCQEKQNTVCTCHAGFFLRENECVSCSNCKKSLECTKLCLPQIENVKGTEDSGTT
- experimentDescription: yeast display SC50
Please report the result as a number followed by the unit.

# count of solved cases: 3
[[record]]
binder = "A69R (designed binder) MTLQELLREEALRRAEAEAFRYALELLAEKFPEQKEYLLDLAEEIESQIRSLSGVDVEDVRKFLDKEWRWVKELLAEHPAELAEVEAARAARLAELRAEVEAKVAA"
reportedmetric = "apparent Kd (screen)"
observedvalue = "0.539 nM"

[[record]]
binder = "W70Y (designed binder) MTLQELLREEALRRAEAEAFRYALELLAEKFPEQKEYLLDLAEEIESQIRSLSGVDVEDVRKFLDKEWAYVKELLAEHPAELAEVEAARAARLAELRAEVEAKVAA"
reportedmetric = "apparent Kd (screen)"
observedvalue = "1.86 nM"

[[record]]
binder = "R8H (designed binder) MTLQELLHEEALRRAEAEAFRYALELLAEKFPEQKEYLLDLAEEIESQIRSLSGVDVEDVRKFLDKEWAWVKELLAEHPAELAEVEAARAARLAELRAEVEAKVAA"
reportedmetric = "apparent Kd (screen)"
observedvalue = "0.869 nM"


Ask: Report measured apparent Kd (screen); entry is L24S (designed binder) MTLQELLREEALRRAEAEAFRYASELLAEKFPEQKEYLLDLAEEIESQIRSLSGVDVEDVRKFLDKEWAWVKELLAEHPAELAEVEAARAARLAELRAEVEAKVAA
Result: 0.869 nM

Ask: Report measured apparent Kd (screen); entry is A102V (designed binder) MTLQELLREEALRRAEAEAFRYALELLAEKFPEQKEYLLDLAEEIESQIRSLSGVDVEDVRKFLDKEWAWVKELLAEHPAELAEVEAARAARLAELRAEVEVKVAA
Result: 0.539 nM

Ask: Report measured apparent Kd (screen); entry is R21H (designed binder) MTLQELLREEALRRAEAEAFHYALELLAEKFPEQKEYLLDLAEEIESQIRSLSGVDVEDVRKFLDKEWAWVKELLAEHPAELAEVEAARAARLAELRAEVEAKVAA
Result: 0.49 nM

Ask: Report measured apparent Kd (screen); entry is A11D (designed binder) MTLQELLREEDLRRAEAEAFRYALELLAEKFPEQKEYLLDLAEEIESQIRSLSGVDVEDVRKFLDKEWAWVKELLAEHPAELAEVEAARAARLAELRAEVEAKVAA
Result: 0.593 nM

Ask: Report measured apparent Kd (screen); entry is E86V (designed binder) MTLQELLREEALRRAEAEAFRYALELLAEKFPEQKEYLLDLAEEIESQIRSLSGVDVEDVRKFLDKEWAWVKELLAEHPAELAEVVAARAARLAELRAEVEAKVAA
Result: 0.956 nM
